Data provenance is patent US9815866B2.

# assay-target: EpCAM on HT-29 (Homo sapiens, UniProt P16422)
# Sequence (P16422 24-314): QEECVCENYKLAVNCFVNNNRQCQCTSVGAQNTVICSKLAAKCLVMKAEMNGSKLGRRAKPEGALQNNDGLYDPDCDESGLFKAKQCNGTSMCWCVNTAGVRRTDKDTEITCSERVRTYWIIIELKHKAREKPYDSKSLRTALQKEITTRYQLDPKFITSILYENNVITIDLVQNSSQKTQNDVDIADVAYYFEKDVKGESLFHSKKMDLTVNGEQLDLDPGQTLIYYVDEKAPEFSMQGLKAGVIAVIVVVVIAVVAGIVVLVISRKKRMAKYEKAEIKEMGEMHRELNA
# protocol: Staining of spheroid-cultured HT-29 cells with FITC-modified peptide
# Type: cell-based
# Design: endogenous in cells; host or cells: HT-29
# test-conditions: FITC-labeled peptide, 0.4 μM
Ends that are not written are not given here.

substance	staining of EpCAM on HT-29 spheroids
114-FITC: FITC-labeled Ep114 peptide (KHLQCVRNICWS; cysteine pairing not given here; also: FITC-labeled, position not given here) [Peptide 114-FITC]	stained
114control-FITC: FITC-labeled Ep114 control peptide in which cysteine at positions 5 and 10 is substituted by serine (KHLQSVRNISWS; also: FITC-labeled, position not given here) [reference compound]	no staining is observed
133control-FITC: FITC-labeled Ep133 control peptide in which cysteine at positions 5 and 10 is substituted by serine (EHLHSLGSLSWP; also: FITC-labeled, position not given here) [reference compound]	no staining is observed
133-FITC: FITC-labeled Ep133 peptide (EHLHCLGSLCWP; cysteine pairing not given here; also: FITC-labeled, position not given here) [Peptide 133-FITC]	stained
